Biological target: HLA-B*73:01
Assay: IEDB peptide-MHC binding, purified MHC/competitive/fluorescence; filed as Kd, often an IC50 or EC50 that approximates it; bounds were set here for any values at or beyond the usual limits of such assays
Conditions: source organism: Mus musculus
property: Kd (µM)
Just the number please, in µM, no unit attached.

Problem: What does the record list as Kd for FRMLAWHVL ?
Solution: 0.689

---

Molecular target: HLA-B*18:01
Test: IEDB peptide-MHC binding, purified MHC/competitive/radioactivity; filed as Kd, often an IC50 or EC50 that approximates it; bounds were set here for any values at or beyond the usual limits of such assays
Conditions: source organism: Lymphocytic choriomeningitis virus (strain Armstrong)
property: pKd
In plain terms, pKd is the concentration in mol/L turned into minus its base-10 logarithm.

Problem: # value lookup — system HLA-B*18:01, readout pKd, item REFVATTRTL
Solution: 4.85

---

Molecular target: HLA-B*07:02
Test: IEDB peptide-MHC binding, purified MHC/direct/fluorescence; filed as Kd, often an IC50 or EC50 that approximates it; bounds were set here for any values at or beyond the usual limits of such assays
Details: source organism: Mammarenavirus lassaense
pKd: −log10 of the molar value.
property: pKd

Problem: # value lookup — system HLA-B*07:02, readout pKd, item IEEVMNIVL
Solution: ≤ 4.70

---

Molecular target: HLA-B*15:01
Assay: IEDB peptide-MHC binding, purified MHC/competitive/fluorescence; filed as Kd, often an IC50 or EC50 that approximates it; bounds were set here for any values at or beyond the usual limits of such assays
Settings: source organism: Listeria monocytogenes J0161
property: Kd

Problem: What does the record list as Kd for YNAKRIETV ?
Solution: ≥ 20 µM

---

Below, each entry is listed alongside its reported pKd.
Target: HLA-B*44:02
Assay: IEDB peptide-MHC binding, purified MHC/direct/fluorescence; filed as Kd, often an IC50 or EC50 that approximates it; bounds were set here for any values at or beyond the usual limits of such assays
Conditions: source organism: Giardia lamblia ATCC 50803
pKd: −log10 of the molar value.

- WLKEKHEEL: ≤ 4.70

Problem: What does the record list as pKd for SHSIPNGLL ?
Solution: ≤ 4.70

---

Target: HLA-A*68:02
Assay: IEDB peptide-MHC binding, purified MHC/competitive/fluorescence; filed as Kd, often an IC50 or EC50 that approximates it; bounds were set here for any values at or beyond the usual limits of such assays
Settings: source organism: Vaccinia virus WR
property: pKd
In plain terms, pKd is the concentration in mol/L turned into minus its base-10 logarithm.

Problem: What does the record list as pKd for EYYFRNEVF ?
Solution: 5.47

---

Target: HLA-B*15:17
Experiment: IEDB peptide-MHC binding, purified MHC/competitive/fluorescence; filed as Kd, often an IC50 or EC50 that approximates it; bounds were set here for any values at or beyond the usual limits of such assays
Conditions: source organism: Four Corners hantavirus
pKd: −log10 of the molar value.
property: pKd

Problem: What does the record list as pKd for KLKKKSAFY ?
Solution: ≤ 4.70

---

Biological target: HLA-A*01:01
Test: IEDB peptide-MHC binding, purified MHC/direct/fluorescence; filed as Kd, often an IC50 or EC50 that approximates it; bounds were set here for any values at or beyond the usual limits of such assays
Conditions: source organism: Danio rerio
property: Kd (nM)
Just the number please, in nM, no unit attached.

Problem: What does the record list as Kd for NTFKFGVIY ?
Solution: 520
